tested on: Tribolium castaneum; test: Insecticidal activity against Tribolium castaneum (red flour beetle) assessed as mortality treated topically measured per insect after 24 hr; format: functional
Overview of reported LC90 across a group of compounds:
Reply with a number, then the unit it belongs to.

INPUT: Look at this compound and give its reported LC90. C=CCOC(=O)/C=C/c1ccccc1 [ALLYL CINNAMATE]
OUTPUT: 0.28 mg

INPUT: Look at this compound and give its reported LC90. C=CCOC(=O)CCCCC [ALLYL HEXANOATE]
OUTPUT: 0.3 mg

INPUT: Look at this compound and give its reported LC90. C=CCOC(=O)c1ccco1 [ALLYL 2-FUROATE]
OUTPUT: 0.46 mg

INPUT: Look at this compound and give its reported LC90. C=CCOC(=O)CCCCCCC [ALLYL OCTANOATE]
OUTPUT: 0.16 mg

# evaluate next
INPUT: Look at this compound and give its reported LC90. C=CCOC(=O)CCCCCC [ALLYL HEPTANOATE]
OUTPUT: 0.32 mg
